- study system: HLA-B*44:05 (Homo sapiens, UniProt P01889, A223V/A65T/A93T/A95T/D201E/D98Y/E176V/E187L/E204Q/E69K/G107R/H137Y/K202T/L105A/L119I/N104T/N87E/Q56L/Q94N/R106L/R155S/R180D/S101N/S121R/S35A/S48T/T118I/V36M/W191S/Y91S)
- assay method text: MHC binding assay (UV-ligand exchange, β2m ELISA, peptide exchange yield)
- setup conditions: binding to HLA-B*44:05
measured parameter: Peptide exchange (MHC class I binding score, peptide exchange yield)

Observe how each entry below is paired with its result.
[[record]]
substance = "275 (GEQPPEGQW; listed as Homo sapiens) [compound 275]"
result = "+++ (>50 = +++)"

[[record]]
substance = "364 (EECDKAYSF; listed as Homo sapiens) [compound 364]"
result = "++ (>20% = ++)"

[[record]]
substance = "71 (AEVGDIIKV; listed as Homo sapiens) [compound 71]"
result = "++ (>20% = ++)"

[[record]]
substance = "331 (KELEATKQYL; listed as Homo sapiens) [compound 331]"
result = "+++ (>50 = +++)"

[[record]]
substance = "79 (TEAQRLDCW; listed as Homo sapiens) [compound 79]"
result = "+++ (>50 = +++)"

[[record]]
substance = "429 (RETEDYSKQAL; listed as Homo sapiens) [compound 429]"
result = "++ (>20% = ++)"


Field Peptide exchange (MHC class I binding score, peptide exchange yield) (entry 313 (EEINQGGRKY; listed as Homo sapiens) [compound 313] ) reads +++ (>50 = +++)

Field Peptide exchange (MHC class I binding score, peptide exchange yield) (entry 163 (AEDEDGKIVGY; listed as Homo sapiens) [compound 163] ) reads ++ (>20% = ++)
